# System Under Test: CDK2/cyclin A complex (Homo sapiens, UniProt P24941)
# Construct: cyclin A: E. coli
# Method Description: Inhibition of CDK2/Cyclin A retinoblastoma kinase activity
# Assay Context: apparent Ki
pKi: −log10 of the molar value.
In this section, each of the compounds is paired with its reported pKi.
Outcome Measure: pKi

[
  {
    "Given Smiles": "c1ccc(Nc2cc(-c3cccs3)[nH]n2)cc1",
    "Outcome Measure": "pKi",
    "Reported Measurement": 4.59
  },
  {
    "Given Smiles": "NS(=O)(=O)c1ccc(Nc2cc(-c3c[nH]c4ccccc34)[nH]n2)cc1",
    "Outcome Measure": "pKi",
    "Reported Measurement": 6.41
  },
  {
    "Given Smiles": "NS(=O)(=O)c1ccc(Nc2cc(-c3csc4cc(O)ccc34)[nH]n2)cc1",
    "Outcome Measure": "pKi",
    "Reported Measurement": 7.80
  },
  {
    "Given Smiles": "NS(=O)(=O)c1ccc(Nc2cc(-c3csc4c(-c5cccc(O)c5)cccc34)[nH]n2)cc1",
    "Outcome Measure": "pKi",
    "Reported Measurement": 5.57
  },
  {
    "Given Smiles": "NS(=O)(=O)c1ccc(Nc2cc(-c3csc4c(-c5ccc(O)cc5)cccc34)[nH]n2)cc1",
    "Outcome Measure": "pKi",
    "Reported Measurement": 5.49
  },
  {
    "Given Smiles": "c1ccc(Nc2cc(-c3c[nH]c4ccccc34)[nH]n2)cc1",
    "Outcome Measure": "pKi",
    "Reported Measurement": 4.82
  },
  {
    "Given Smiles": "c1ccc(Nc2cc(-c3csc4ccccc34)[nH]n2)cc1",
    "Outcome Measure": "pKi",
    "Reported Measurement": 5.21
  },
  {
    "Given Smiles": "c1ccc(Nc2cc(-c3cccnc3)[nH]n2)cc1",
    "Outcome Measure": "pKi",
    "Reported Measurement": 4.21
  },
  {
    "Given Smiles": "Oc1cccc(Nc2cc(-c3csc4ccccc34)[nH]n2)c1",
    "Outcome Measure": "pKi",
    "Reported Measurement": 5.62
  },
  {
    "Given Smiles": "Brc1cscc1-c1cc(Nc2ccccc2)n[nH]1",
    "Outcome Measure": "pKi",
    "Reported Measurement": 4.66
  },
  {
    "Given Smiles": "COc1cccc(Nc2cc(-c3csc4ccccc34)[nH]n2)c1",
    "Outcome Measure": "pKi",
    "Reported Measurement": 4.68
  },
  {
    "Given Smiles": "Oc1ccc(Nc2cc(-c3csc4ccccc34)[nH]n2)cc1",
    "Outcome Measure": "pKi",
    "Reported Measurement": 5.70
  },
  {
    "Given Smiles": "COc1ccc(Nc2cc(-c3csc4ccccc34)[nH]n2)cc1",
    "Outcome Measure": "pKi",
    "Reported Measurement": 5.20
  },
  {
    "Given Smiles": "NS(=O)(=O)c1ccc(Nc2cc(-c3csc4c(Br)cccc34)[nH]n2)cc1",
    "Outcome Measure": "pKi",
    "Reported Measurement": 6.96
  },
  {
    "Given Smiles": "COc1ccc2c(-c3cc(Nc4ccc(S(N)(=O)=O)cc4)n[nH]3)csc2c1",
    "Outcome Measure": "pKi",
    "Reported Measurement": 6.57
  },
  {
    "Given Smiles": "C1=C(c2cscc2-c2cc(Nc3ccccc3)n[nH]2)CCCC1",
    "Outcome Measure": "pKi",
    "Reported Measurement": 5.00
  },
  {
    "Given Smiles": "NS(=O)(=O)c1ccc(Nc2cc(-c3csc4ccc(Br)cc34)[nH]n2)cc1",
    "Outcome Measure": "pKi",
    "Reported Measurement": 7.10
  },
  {
    "Given Smiles": "NS(=O)(=O)c1ccc(Nc2cc(-c3csc4ccccc34)[nH]n2)cc1",
    "Outcome Measure": "pKi",
    "Reported Measurement": 7.21
  },
  {
    "Given Smiles": "c1ccc(Nc2n[nH]c3c2-c2ccccc2C3)cc1",
    "Outcome Measure": "pKi",
    "Reported Measurement": 4.60
  },
  {
    "Given Smiles": "c1ccc(Nc2cc(-c3cscc3C3CCCCC3)[nH]n2)cc1",
    "Outcome Measure": "pKi",
    "Reported Measurement": 5.52
  }
]

----------
# System Under Test: CDK4/cyclin D3 complex (Homo sapiens, UniProt P11802)
# Sequence (P11802 whole entry): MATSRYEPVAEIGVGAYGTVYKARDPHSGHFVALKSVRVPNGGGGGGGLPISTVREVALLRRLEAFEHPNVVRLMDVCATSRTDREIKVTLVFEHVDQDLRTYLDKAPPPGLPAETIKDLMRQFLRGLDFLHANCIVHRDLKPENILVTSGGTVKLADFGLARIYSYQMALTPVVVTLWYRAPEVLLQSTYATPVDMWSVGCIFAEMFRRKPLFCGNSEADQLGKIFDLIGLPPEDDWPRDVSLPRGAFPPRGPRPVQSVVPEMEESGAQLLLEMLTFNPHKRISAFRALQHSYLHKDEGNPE
# Sequence (P30281 whole entry partner): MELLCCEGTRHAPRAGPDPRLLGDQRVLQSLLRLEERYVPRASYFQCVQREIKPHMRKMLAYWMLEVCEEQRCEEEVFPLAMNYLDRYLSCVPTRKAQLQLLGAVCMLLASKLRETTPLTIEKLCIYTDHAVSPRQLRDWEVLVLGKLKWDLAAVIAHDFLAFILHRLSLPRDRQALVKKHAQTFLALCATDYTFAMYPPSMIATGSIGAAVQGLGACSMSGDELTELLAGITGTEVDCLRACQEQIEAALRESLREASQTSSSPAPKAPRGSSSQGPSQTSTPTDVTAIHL
# Method Description: Inhibition of CDK4/Cyclin D retinoblastoma kinase activity
# Assay Context: apparent Ki
pKi: −log10 of the molar value.

[
  {
    "Given Smiles": "c1ccc(Nc2n[nH]c3c2-c2ccccc2C3)cc1",
    "pKi": 5.13
  },
  {
    "Given Smiles": "c1ccc(Nc2cc(-c3cccnc3)[nH]n2)cc1",
    "pKi": 4.23
  },
  {
    "Given Smiles": "c1ccc(Nc2cc(-c3cscc3C3CCCCC3)[nH]n2)cc1",
    "pKi": 5.52
  },
  {
    "Given Smiles": "NS(=O)(=O)c1ccc(Nc2cc(-c3c[nH]c4ccccc34)[nH]n2)cc1",
    "pKi": 4.92
  },
  {
    "Given Smiles": "c1ccc(Nc2cc(-c3c[nH]c4ccccc34)[nH]n2)cc1",
    "pKi": 4.92
  },
  {
    "Given Smiles": "C1=C(c2cscc2-c2cc(Nc3ccccc3)n[nH]2)CCCC1",
    "pKi": 5.00
  },
  {
    "Given Smiles": "c1ccc(Nc2cc(-c3cscc3Sc3ccccc3)[nH]n2)cc1",
    "pKi": 5.33
  },
  {
    "Given Smiles": "Oc1cccc(Nc2cc(-c3csc4ccccc34)[nH]n2)c1",
    "pKi": 5.31
  },
  {
    "Given Smiles": "COc1ccc(Nc2cc(-c3csc4ccccc34)[nH]n2)cc1",
    "pKi": 5.33
  },
  {
    "Given Smiles": "Brc1cscc1-c1cc(Nc2ccccc2)n[nH]1",
    "pKi": 5.01
  },
  {
    "Given Smiles": "NS(=O)(=O)c1ccc(Nc2cc(-c3csc4c(-c5ccc(O)cc5)cccc34)[nH]n2)cc1",
    "pKi": 5.68
  },
  {
    "Given Smiles": "Oc1ccc(Nc2cc(-c3csc4ccccc34)[nH]n2)cc1",
    "pKi": 5.28
  },
  {
    "Given Smiles": "NS(=O)(=O)c1ccc(Nc2cc(-c3csc4cc(O)ccc34)[nH]n2)cc1",
    "pKi": 6.05
  },
  {
    "Given Smiles": "COc1cccc(Nc2cc(-c3csc4ccccc34)[nH]n2)c1",
    "pKi": 5.39
  },
  {
    "Given Smiles": "COc1ccc2c(-c3cc(Nc4ccc(S(N)(=O)=O)cc4)n[nH]3)csc2c1",
    "pKi": 4.92
  },
  {
    "Given Smiles": "c1ccc(Nc2cc(-c3cccs3)[nH]n2)cc1",
    "pKi": 4.58
  },
  {
    "Given Smiles": "NS(=O)(=O)c1ccc(Nc2cc(-c3csc4ccc(Br)cc34)[nH]n2)cc1",
    "pKi": 5.64
  },
  {
    "Given Smiles": "c1ccc(Nc2cc(-c3csc4ccccc34)[nH]n2)cc1",
    "pKi": 5.51
  },
  {
    "Given Smiles": "NS(=O)(=O)c1ccc(Nc2cc(-c3csc4c(-c5cccc(O)c5)cccc34)[nH]n2)cc1",
    "pKi": 5.48
  },
  {
    "Given Smiles": "NS(=O)(=O)c1ccc(Nc2cc(-c3csc4c(Br)cccc34)[nH]n2)cc1",
    "pKi": 5.68
  },
  {
    "Given Smiles": "NS(=O)(=O)c1ccc(Nc2cc(-c3csc4ccccc34)[nH]n2)cc1",
    "pKi": 5.80
  }
]
